- Test system: Calu-3
- assay_notes: drug sensitivity score (DSS) for viability; higher = more toxic; extreme values may be limits of the assay
- condition_info: 72 h
Measured drug sensitivity score accompanies every entry in the list below.

{"molecule": "N=C(N)N/N=C/c1c(Cl)cccc1Cl [guanaben-acetate]", "drug sensitivity score": 0}
{"molecule": "CCCN(CCc1cccs1)[C@H]1CCc2c(O)cccc2C1 [rotigotine]", "drug sensitivity score": 0}
{"molecule": "Cc1ccnc2c1NC(=O)c1cccnc1N2C1CC1 [nevirapine]", "drug sensitivity score": 0.2}
{"molecule": "CCC1(C2=NCCN2)Cc2ccccc2O1 (stereo not given) [efaroxan]", "drug sensitivity score": 0}
{"molecule": "CC[C@H]1[C@@H]2C[C@H]3[C@@H]4N(C)c5ccccc5[C@]45C[C@@H]([C@@H]2[C@H]5O)N3[C@@H]1O [ajmaline]", "drug sensitivity score": 0}
{"molecule": "CNCCC(Oc1ccc(C(F)(F)F)cc1)c1ccccc1 (stereo not given) [fluoxetine]", "drug sensitivity score": 0.3}
{"molecule": "CN1[C@@H]2CC[C@H]1C[C@@H](OC(=O)[C@H](CO)c1ccccc1)C2 [hyoscyamine]", "drug sensitivity score": 0}
{"molecule": "Cc1ccc2c(c1)c1c(n2CCc2ccc(C)nc2)CCN(C)C1 [latrepirdine]", "drug sensitivity score": 0}
{"molecule": "O=NN(CCCl)C(=O)NC1CCCCC1 [lomustine]", "drug sensitivity score": 0}
{"molecule": "O=S(=O)(c1cccc2cnccc12)N1CCCNCC1 [fasudil]", "drug sensitivity score": 0}

###

Measured morphology score accompanies every entry in the list below.
- Tested on: A549-ACE2 infected with SARS-CoV-2
- assay_notes: morphology score (similarity to uninfected cells); higher = more like uninfected cells
- condition_info: 0.3 µM; 24 h

{"molecule": "COc1cc2c(NC3CCN(C(C)C)CC3)nc(C3CCCCC3)nc2cc1OCCCN1CCCC1", "morphology score": 0.28}
{"molecule": "CN1CCN(C2CCN(C(=O)Nc3cc(Oc4ccc(NC(=O)C5(C(=O)Nc6ccc(F)cc6)CC5)c(F)c4)ccn3)CC2)CC1", "morphology score": -0.14}
{"molecule": "C=C1C(=O)O[C@@H]2[C@H]3C(C)=CC[C@@]34O[C@@]4(C)CC[C@@H]12", "morphology score": 0.02}
{"molecule": "CCOC(=O)C1=C(COCCN)NC(C)=C(C(=O)OC)C1c1ccccc1Cl (centres undefined)", "morphology score": -0.27}

###

- System: Vero E6
- assay_notes: cell viability relative to DMSO; higher = less toxic
- condition_info: 72 h; 1000 nM

{"molecule": "COc1c(C)cnc(Cn2cnc3c(Cl)nc(N)nc32)c1C", "cell viability, %": 51.8}
{"molecule": "O=C1[C@H](CC[C@H](O)c2ccc(F)cc2)[C@@H](c2ccc(O)cc2)N1c1ccc(F)cc1", "cell viability, %": 100}
{"molecule": "CC(C)(N)C(=O)N[C@H](COCc1ccccc1)C(=O)N1CCC2(CC1)CN(S(C)(=O)=O)c1ccccc12", "cell viability, %": 95.6}
{"molecule": "CC(=O)N[C@H]1[C@@H](O)[C@H](O)[C@@H](CO)O[C@@H]1O", "cell viability, %": 92.8}
{"molecule": "Cc1ccc(OCCSc2ncccn2)c(Br)c1", "cell viability, %": 102}
{"molecule": "O=C(C[S+]([O-])C(c1ccccc1)c1ccccc1)NO (stereo not drawn)", "cell viability, %": 93}
{"molecule": "NC(=O)CC[C@H](N)C(=O)O", "cell viability, %": 93}
{"molecule": "Cc1cccc(C)c1OCC(=O)N[C@@H](Cc1ccccc1)[C@@H](O)C[C@H](Cc1ccccc1)NC(=O)[C@H](C(C)C)N1CCCNC1=O", "cell viability, %": 100}

###

- Test system: Caco-2
- assay_notes: cell viability relative to DMSO; higher = less toxic
- condition_info: 72 h; 1000 nM

{"compound": "COc1ccc(C(Cl)=C(c2ccc(OC)cc2)c2ccc(OC)cc2)cc1 [chlorotrianisene]", "unit_abbrev": "%", "cell viability": 104}
{"compound": "O=[N+]([O-])C(Br)(CO)CO [bronopol]", "unit_abbrev": "%", "cell viability": 98.7}
{"compound": "CC[C@H]1CN2CC[C@H]1C[C@@H]2[C@@H](O)c1ccnc2ccc(OC)cc12 [hydroquinidine]", "unit_abbrev": "%", "cell viability": 94.7}
{"compound": "CC(=O)OCC(=O)NCCCOc1cccc(CN2CCCCC2)c1 [roxatidine-acetate]", "unit_abbrev": "%", "cell viability": 101}
{"compound": "Nc1ccc(S(=O)(=O)c2ccc(N)cc2)cc1 [dapsone]", "unit_abbrev": "%", "cell viability": 100}
{"compound": "CN1C(=O)CC[C@H]1c1cccnc1 [cotinine]", "unit_abbrev": "%", "cell viability": 83}
{"compound": "COc1cc2c(cc1OC)CN(C(=O)/C=C/c1c(-c3ccccc3)n(C)c3ncccc13)CC2 [SIS3]", "unit_abbrev": "%", "cell viability": 96.5}
{"compound": "C#C[C@]1(O)CC[C@H]2[C@@H]3CCC4=CC(=O)CC[C@@H]4[C@H]3CC[C@@]21C [Norethindrone (Norethisterone)]", "unit_abbrev": "%", "cell viability": 101}
{"compound": "Cc1ccc(OCCSc2ncccn2)c(Br)c1 [ZLN024]", "unit_abbrev": "%", "cell viability": 97}

###

Measured cell viability accompanies every entry in the list below.
- Test system: Calu-3
- assay_notes: cell viability relative to DMSO; higher = less toxic
- condition_info: 72 h; 1000 nM
property_label: cell viability (%)

{"compound": "C[C@@H](CN(C)C)CN1c2ccccc2Sc2ccccc21 (racemic) [alimemazine]", "target_or_test_system": "Calu-3", "test_result": 105}
{"compound": "C[C@H]1O[C@@H](O[C@H]2[C@@H](O)C[C@H](O[C@H]3[C@@H](O)C[C@H](O[C@H]4CC[C@@]5(C)[C@H](CC[C@@H]6[C@@H]5C[C@@H](O)[C@]5(C)[C@@H](C7=CC(=O)OC7)CC[C@]65O)C4)O[C@@H]3C)O[C@@H]2C)C[C@H](O)[C@@H]1O [digoxin]", "target_or_test_system": "Calu-3", "test_result": 26.5}
{"compound": "CCOc1cc(C(=O)Nc2ccc(Cl)c(-c3nc4ccccc4[nH]3)c2)cc(OCC)c1OCC [SANT-2]", "target_or_test_system": "Calu-3", "test_result": 94}

###

- System: U2OS
- assay_notes: cell viability relative to DMSO; higher = less toxic
- condition_info: 72 h; 1000 nM

{"compound": "c1ccc(C2CC2)c(OCC2=NCCN2)c1", "unit_abbrev": "%", "cell viability": 97.6}
{"compound": "CCOc1cc(OCC)c(C(=O)CCC(=O)O)cc1OCC [trepibutone]", "unit_abbrev": "%", "cell viability": 100}
{"compound": "Nc1ncccc1-c1nc2ccc(-c3ccccc3)nc2n1-c1ccc(C2(N)CCC2)cc1", "unit_abbrev": "%", "cell viability": 91.9}
{"compound": "COc1cc2c(NC3CCN(C(C)C)CC3)nc(C3CCCCC3)nc2cc1OCCCN1CCCC1", "unit_abbrev": "%", "cell viability": 98.5}
{"compound": "CC(C)(C)n1nc(-c2cccc3ccccc23)c2c(N)ncnc21", "unit_abbrev": "%", "cell viability": 94.4}

###

Measured cell viability accompanies every entry in the list below.
- System: Calu-3
- assay_notes: cell viability relative to DMSO; higher = less toxic
- condition_info: 72 h; 10000 nM

{"compound": "COc1ccc2c(C)nc(Nc3nc(C)c(C)c(O)n3)nc2c1", "cell viability": "94.6%"}
{"compound": "COc1c(C)cnc(Cn2cnc3c(Cl)nc(N)nc32)c1C", "cell viability": "39.4%"}
{"compound": "CCC1(C2=NCCN2)Cc2ccccc2O1 (configuration not stated)", "cell viability": "110%"}
{"compound": "CN1[C@@H]2CC[C@H]1C[C@@H](OC(=O)c1c[nH]c3ccccc13)C2", "cell viability": "97.6%"}
{"compound": "CO[C@H]1C[C@H](O[C@H]2[C@H](C)O[C@@H](O[C@@H]3/C(C)=C/C[C@@H]4C[C@@H](C[C@]5(C=C[C@H](C)[C@@H](C6CCCCC6)O5)O4)OC(=O)[C@@H]4C=C(C)[C@@H](O)[C@H]5OC/C(=C\\C=C\\[C@@H]3C)[C@]54O)C[C@@H]2OC)O[C@@H](C)[C@@H]1O", "cell viability": "75%"}
{"compound": "O=c1[nH]c(=O)n([C@H]2C[C@H](O)[C@@H](CO)O2)cc1C(F)(F)F", "cell viability": "97.7%"}
{"compound": "C[C@@H](CN(C)C)CN1c2ccccc2Sc2ccccc21 (racemic)", "cell viability": "83.4%"}
{"compound": "CC1(C)CC(Oc2ccc(-c3ccc(-c4cn[nH]c4)cc3O)nn2)CC(C)(C)N1", "cell viability": "85.4%"}
{"compound": "COc1cc(OCc2cccc(-c3ccccc3)c2C)cc(OC)c1CN1CCCC[C@H]1C(=O)O", "cell viability": "102%"}
{"compound": "Cc1c2oc3c(C)ccc(C(=O)N[C@@H]4C(=O)N[C@@H](C(C)C)C(=O)N5CCC[C@H]5C(=O)N(C)CC(=O)N(C)[C@@H](C(C)C)C(=O)O[C@@H]4C)c3nc-2c(C(=O)N[C@@H]2C(=O)N[C@@H](C(C)C)C(=O)N3CCC[C@H]3C(=O)N(C)CC(=O)N(C)[C@@H](C(C)C)C(=O)O[C@@H]2C)c(N)c1=O", "cell viability": "36.7%"}
{"compound": "CN1[C@@H]2CC[C@H]1C[C@@H](OC(=O)[C@H](CO)c1ccccc1)C2", "cell viability": "99.4%"}
{"compound": "O=C(NCCN1CCC2(CC1)C(=O)NCN2c1cccc(F)c1)c1ccc(F)c(F)c1", "cell viability": "89.1%"}
{"compound": "COC(=O)C1=C(C)NC(C)=C(C(=O)OC(C)C)[C@@H]1c1cccc2nonc12", "cell viability": "95.2%"}
{"compound": "CC=C1C(=O)C[C@H]2[C@@H]3CCC4=CC(=O)CC[C@]4(C)[C@H]3CC[C@]12C", "cell viability": "114%"}
{"compound": "Cc1onc(-c2c(Cl)cccc2Cl)c1C(=O)N[C@@H]1C(=O)N2[C@@H]1SC(C)(C)[C@@H]2C(=O)O", "cell viability": "98.9%"}
{"compound": "COc1ccc(COc2ccc(CC#N)cc2)cc1", "cell viability": "102%"}
{"compound": "C[C@H]1CCC/C=C/[C@@H]2C[C@H](O)C[C@H]2[C@H](O)/C=C/C(=O)O1", "cell viability": "10.7%"}
{"compound": "C[C@H](N[C@@H](CCc1ccccc1)C(=O)O)C(=O)N1CCC[C@H]1C(=O)O", "cell viability": "97.2%"}
{"compound": "COc1cccc(Nc2ncnn3ccc(CN4CC[C@@H](N)[C@H](O)C4)c23)c1", "cell viability": "9.1%"}
{"compound": "N#CN=C(NCCCCCCOc1ccc(Cl)cc1)Nc1ccncc1", "cell viability": "3.9%"}
{"compound": "CO[C@H]1C[C@@H]2CC[C@@H](C)[C@@](O)(O2)C(=O)C(=O)N2CCCC[C@H]2C(=O)O[C@H]([C@H](C)C[C@@H]2CC[C@@H](O)[C@H](OC)C2)CC(=O)[C@H](C)/C=C(\\C)[C@@H](O)[C@@H](OC)C(=O)[C@H](C)C[C@H](C)/C=C/C=C/C=C/1C", "cell viability": "47.3%"}
{"compound": "COc1cc2c(CCNC(C)=O)c[nH]c2cc1Cl", "cell viability": "98.3%"}
